B1: HDV Ribozyme (parent)
chain: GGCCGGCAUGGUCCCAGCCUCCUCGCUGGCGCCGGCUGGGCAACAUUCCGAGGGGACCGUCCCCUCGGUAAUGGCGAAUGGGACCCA

Variants of: B1
Experiment: self-cleavage, relative activity (ratio to wild type); higher = more cleavage; co-transcriptional
VALUE_KIND: self-cleavage

ALTERATION: G74U A78C
self-cleavage: 0.201
//
ALTERATION: C49U C75A
self-cleavage: 0.196
//
ALTERATION: G6C G68A
self-cleavage: 0.201

As a next step, examine the variant that follows.
Reported self-cleavage for G54U G80U was 0.203
